The origin of these recorded values is paper PMC9243654.

# test_description: in vitro
# condition_notes: PAMPA
measured_property: Cross BBB potential

>>> endpoint_value("O=C(O)/C=C/c1ccc(O)c(O)c1")
"-"
>>> endpoint_value("CC(C)C1=Cc2ccc3c(c2C(=O)C1=O)CCCC3(C)C")
"++"
>>> endpoint_value("C[C@@H]1O[C@@H](Oc2c(-c3ccc(O)cc3)oc3cc(O)cc(O)c3c2=O)[C@H](O)[C@H](O)[C@H]1O")
"-"
